# measured target: wild-type E. coli PNP (Escherichia coli)
# Sequence (P0ABP8 whole entry): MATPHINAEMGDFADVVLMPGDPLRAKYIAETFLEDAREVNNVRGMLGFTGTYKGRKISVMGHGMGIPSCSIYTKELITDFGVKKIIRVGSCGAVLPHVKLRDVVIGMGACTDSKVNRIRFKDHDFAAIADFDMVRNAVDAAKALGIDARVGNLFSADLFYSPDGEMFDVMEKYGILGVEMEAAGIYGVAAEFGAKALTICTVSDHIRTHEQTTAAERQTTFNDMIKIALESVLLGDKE
# test settings: Table III; 100 μM substrate; HPLC; average of separate experiments
quantity kind: Wild type, pure enzyme, rate of cleavage

q: I am curious: what Wild type, pure enzyme, rate of cleavage value has been reported for Cc1ncnc2c1ncn2[C@@H]1O[C@H]([C@H](C)O)[C@@H](O)[C@H]1O [5′-methyl(talo)MeP-R] ?
a: 915 nmol/mg/h

q: I am curious: what Wild type, pure enzyme, rate of cleavage value has been reported for Nc1ncnc2c1ncn2[C@@H]1O[C@@H](CO)[C@@H](O)[C@H]1O [9-(α-L-lyxofuranosyl)-adenine] ?
a: 3,690 nmole/mg/hr

q: I am curious: what Wild type, pure enzyme, rate of cleavage value has been reported for Cc1ncnc2c1ncn2[C@@H]1O[C@@H](CO)[C@@H](O)[C@H]1O [9-(α-L-lyxofuranosyl)-6-methylpurine, 6-Methyl-9-α-L-lyxofuranosylpurine] ?
a: 218 nmol/mg/h

q: I am curious: what Wild type, pure enzyme, rate of cleavage value has been reported for `Nc1nc(F)nc2c1ncn2[C@@H]1O[C@H](CI)[C@@H](O)[C@H]1O` ?
a: 13 nmol/mg/h

q: I am curious: what Wild type, pure enzyme, rate of cleavage value has been reported for `OC[C@H]1O[C@@H](n2cnc3c(CF)ncnc32)[C@H](O)[C@@H]1O` ?
a: 56,000 nmole/mg/hr

q: I am curious: what Wild type, pure enzyme, rate of cleavage value has been reported for Cc1ncnc2c1ncn2[C@@H]1O[C@H]([C@@H](C)O)[C@@H](O)[C@H]1O [5′methyl(allo)-MeP-R] ?
a: 47 nmol/mg/h

q: I am curious: what Wild type, pure enzyme, rate of cleavage value has been reported for `C[C@@H](O)[C@H]1O[C@@H](n2cnc3c(N)nc(F)nc32)[C@H](O)[C@@H]1O` ?
a: 2,600 nmole/mg/hr

q: I am curious: what Wild type, pure enzyme, rate of cleavage value has been reported for Nc1nc(F)nc2c1ncn2[C@@H]1O[C@H](CO)[C@@H](O)[C@@H]1O [F-araA, 9-(β-D-arabinofuranosyl)-2-fluoroadenine] ?
a: 1,250 nmole/mg/hr

q: I am curious: what Wild type, pure enzyme, rate of cleavage value has been reported for Nc1nc(F)nc2c1ncn2[C@@H]1O[C@@H](CO)[C@@H](O)[C@H]1O [9-(α-L-lyxofuranosyl)-2-fluoroadenine] ?
a: 7,800 nmole/mg/hr

q: I am curious: what Wild type, pure enzyme, rate of cleavage value has been reported for `Nc1nc2c(ncn2[C@@H]2C[C@H](CO)[C@@H](CO)O2)c(=S)[nH]1` ?
a: 242 nmol/mg/h

q: I am curious: what Wild type, pure enzyme, rate of cleavage value has been reported for NC[C@H]1O[C@@H](n2cnc3c(N)ncnc32)[C@H](O)[C@@H]1O [5′-amino-5′-deoxy-Ado, 5′-amino-5′-deoxyadenosine] ?
a: 539 nmol/mg/h

q: I am curious: what Wild type, pure enzyme, rate of cleavage value has been reported for `Cc1ncnc2c1ncn2[C@@H]1O[C@H](C)[C@@H](O)[C@H]1O` ?
a: 406 nmol/mg/h

q: I am curious: what Wild type, pure enzyme, rate of cleavage value has been reported for `Cc1ncnc2c1ncn2[C@@H]1O[C@@H](C)[C@@H](O)[C@H]1O` ?
a: 20 nmol/mg/h

q: I am curious: what Wild type, pure enzyme, rate of cleavage value has been reported for `CSC[C@H]1O[C@@H](n2cnc3c(N)nc(F)nc32)[C@H](O)[C@@H]1O` ?
a: 13 nmol/mg/h

q: I am curious: what Wild type, pure enzyme, rate of cleavage value has been reported for Cc1ncnc2c1ncn2[C@H]1C[C@H](O)[C@@H](CO)O1 [MeP-dR] ?
a: 528,000 nmole/mg/hr
